system: lice; experiment: Standard in vitro test on filter paper (petri-dish lice repellency); conditions: 10 min, 20±3° C.
RD80 (mg/cm^2 giving 80% repellency): recorded values
quantity name: RD80 (mg/cm^2 giving 80% repellency) (mg/cm^2)

[
  {
    "compound": "CC(C)=C1CC[C@@H](C)CC1=O [PULEGONE]",
    "unit symbol": "mg/cm^2",
    "measured number": 0.490
  },
  {
    "compound": "CC1(C)C2CCC(CO)C1C2 (stereo not drawn) [Cis MYRTANOL]",
    "unit symbol": "mg/cm^2",
    "measured number": 0.700
  },
  {
    "compound": "C=C(C)C1CCC(C)C(OC(C)=O)C1 (stereo not drawn) [DIH[…]]",
    "unit symbol": "mg/cm^2",
    "measured number": 0.210
  },
  {
    "compound": "CC(C)=CCCC(C)=CC=O [CITRAL]",
    "unit symbol": "mg/cm^2",
    "measured number": 0.420
  },
  {
    "compound": "C=C(C)C1CCC(C)C(O)C1 (stereo not drawn) [DIHYDRO CARVEOL, dihydrocarveol]",
    "unit symbol": "mg/cm^2",
    "measured number": 0.630
  },
  {
    "compound": "C=CC(C)(O)CCC=C(C)C (stereo not drawn) [LINALOOL, linalool]",
    "unit symbol": "mg/cm^2",
    "measured number": 0.056
  }
]

----------
RD80 (mg/cm^2 giving 80% repellency): recorded values
system: lice; assay: Standard in vitro test on filter paper (petri-dish lice repellency); details: 10 min, 20±3° C.
quantity name: RD80 (mg/cm^2 giving 80% repellency) (mg/cm^2)

[
  {
    "molecule": "CC1=CCC2C(C1)C2(C)C (stereo not shown) [CARENE]",
    "target desc": "lice",
    "measured number": 1.400
  },
  {
    "molecule": "C=C(C)C1CCC(C)C(=O)C1 (stereo not shown) [DIHYDRO CARVONE]",
    "target desc": "lice",
    "measured number": 0.350
  },
  {
    "molecule": "C=C(C)[C@@H]1CC=C(C)CC1 [- LIMONENE]",
    "target desc": "lice",
    "measured number": 2.800
  },
  {
    "molecule": "CC1=CC(O)C2CC1C2(C)C (stereo not drawn) [Cis VERBENOL, cis-verbenol]",
    "target desc": "lice",
    "measured number": 1.400
  },
  {
    "molecule": "CC1(C)C2CC=C(CO)C1C2 (stereo not shown) [MYRTENOL, myrtenol]",
    "target desc": "lice",
    "measured number": 0.630
  },
  {
    "molecule": "CC1C(O)CC2CC1C2(C)C (stereo not shown) [ISOPINO-CAMPHEOL, iso-pinocampheol]",
    "target desc": "lice",
    "measured number": 0.210
  },
  {
    "molecule": "CC1CCC(C(C)C)C(OC(=O)C(C)O)C1 (stereo not shown) [MENTHYL LACTATE, menthyl lactate]",
    "target desc": "lice",
    "measured number": 0.070
  },
  {
    "molecule": "C=C(C)C1CC=C(C)C(OC(=O)CC)C1 (stereo not shown) [CARVYL PROPRIONATE, carvyl propionate]",
    "target desc": "lice",
    "measured number": 0.420
  },
  {
    "molecule": "CC1CCC(C(C)C)C(O)C1 (stereo not shown) [MENTHOL, menthol]",
    "target desc": "lice",
    "measured number": 0.105
  },
  {
    "molecule": "CC(C)=CCC/C(C)=C\\CO [NEROL, nerol]",
    "target desc": "lice",
    "measured number": 0.560
  },
  {
    "molecule": "C=C(C)[C@H]1CC=C(C)CC1 [+ LIMONENE]",
    "target desc": "lice",
    "measured number": 2.100
  },
  {
    "molecule": "CC1=CCC(O)(C(C)C)CC1 (stereo not shown) [terpinen-4-ol]",
    "target desc": "lice",
    "measured number": 0.063
  },
  {
    "molecule": "CC(C)=CCCC(C)CCO (stereo not drawn) [β-CITRONELLOL, β-citronellol]",
    "target desc": "lice",
    "measured number": 0.049
  },
  {
    "molecule": "CC(=O)O[C@@H]1C[C@H]2CC[C@]1(C)C2(C)C (racemic) [ISO BORNYL ACETATE]",
    "target desc": "lice",
    "measured number": 0.560
  },
  {
    "molecule": "C=C(C)[C@@H]1CC[C@@H](C)C[C@H]1O [ISOPULEGOL, isopulegol]",
    "target desc": "lice",
    "measured number": 0.560
  },
  {
    "molecule": "CC1=CC=C(C(C)C)CC1",
    "target desc": "lice",
    "measured number": 1.050
  },
  {
    "molecule": "CC1=CCC(C(C)(C)O)CC1 (stereo not drawn) [α-TERPINEOL, α-terpineol]",
    "target desc": "lice",
    "measured number": 0.056
  },
  {
    "molecule": "CC(C)=CCC/C(C)=C/CO [GERANIOL, geraniol]",
    "target desc": "lice",
    "measured number": 0.014
  },
  {
    "molecule": "C=C1CCC2CC1C2(C)C (stereo not drawn) [β PINENE]",
    "target desc": "lice",
    "measured number": 0.770
  },
  {
    "molecule": "C=C(C)[C@@H]1CC=C(CO)CC1 [PERILLIL ALCOHOL, perillyl alcohol]",
    "target desc": "lice",
    "measured number": 0.020
  },
  {
    "molecule": "C=C(C)C1CC=C(C)[C@@H](O)C1 (stereo partly shown) [CARVEOL, carveol]",
    "target desc": "lice",
    "measured number": 1.050
  },
  {
    "molecule": "C=CC(C)CCCC(C)(C)O (stereo not shown) [DIHYDRO MYRCENOL, dihydro-myrcenol]",
    "target desc": "lice",
    "measured number": 0.560
  }
]

----------
tested on: lice; assay: Standard in vitro test on filter paper (petri-dish lice repellency); conditions: 10 min, 20±3° C.
quantity name: RC50 (Concentration giving 50% repellency) (%)

[
  {
    "compound": "CC1(C)C2CCC(CO)C1C2 (stereo not drawn) [Cis MYRTANOL]",
    "measured number": 0.600
  },
  {
    "compound": "CC(C)=CCCC(C)=CC=O",
    "measured number": 0.300
  },
  {
    "compound": "CC1CCC(C(C)C)C(O)C1 (stereo not shown)",
    "measured number": 0.030
  },
  {
    "compound": "CC1CCC(C(C)C)C(OC(=O)C(C)O)C1 (stereo not shown) [MENTHYL LACTATE, menthyl lactate]",
    "measured number": 0.050
  },
  {
    "compound": "C=C(C)[C@@H]1CC=C(CO)CC1",
    "measured number": 0.010
  },
  {
    "compound": "CC1(C)C2CC=C(CO)C1C2 (stereo not shown)",
    "measured number": 0.500
  },
  {
    "compound": "C=C(C)C1CCC(C)C(=O)C1 (stereo not shown) [DIHYDRO CARVONE]",
    "measured number": 0.200
  },
  {
    "compound": "C=C(C)[C@@H]1CC[C@@H](C)C[C@H]1O",
    "measured number": 0.500
  },
  {
    "compound": "CC(C)=CCCC(C)CCO (stereo not shown)",
    "measured number": 0.020
  },
  {
    "compound": "CC(=O)O[C@@H]1C[C@H]2CC[C@]1(C)C2(C)C (racemic) [ISO BORNYL ACETATE]",
    "measured number": 0.600
  },
  {
    "compound": "C=C(C)[C@@H]1CC=C(C)CC1",
    "measured number": 3.000
  },
  {
    "compound": "CC(C)=C1CC[C@@H](C)CC1=O",
    "measured number": 0.400
  },
  {
    "compound": "CC1=CCC(O)(C(C)C)CC1 (stereo not shown)",
    "measured number": 0.020
  },
  {
    "compound": "CC(C)=CCC/C(C)=C\\CO",
    "measured number": 0.500
  },
  {
    "compound": "CC1=CCC(C(C)(C)O)CC1 (stereo not shown)",
    "measured number": 0.040
  },
  {
    "compound": "C=C(C)[C@H]1CC=C(C)CC1",
    "measured number": 2.000
  },
  {
    "compound": "C=C1CCC2CC1C2(C)C (stereo not shown)",
    "measured number": 0.200
  },
  {
    "compound": "CC1=CCC2C(C1)C2(C)C (stereo not shown)",
    "measured number": 1.000
  },
  {
    "compound": "C=C(C)C1CC=C(C)C(OC(=O)CC)C1 (stereo not shown) [CARVYL PROPRIONATE, carvyl propionate]",
    "measured number": 0.200
  },
  {
    "compound": "C=C(C)C1CCC(C)C(O)C1 (stereo not shown) [DIHYDRO CARVEOL, dihydrocarveol]",
    "measured number": 0.400
  },
  {
    "compound": "C=CC(C)(O)CCC=C(C)C (stereo not shown)",
    "measured number": 0.020
  },
  {
    "compound": "CC1=CC=C(C(C)C)CC1",
    "measured number": 0.900
  },
  {
    "compound": "CC(C)=CCC/C(C)=C/CO",
    "measured number": 0.005
  },
  {
    "compound": "CC1C(O)CC2CC1C2(C)C (stereo not shown)",
    "measured number": 0.200
  },
  {
    "compound": "C=C(C)C1CC=C(C)[C@@H](O)C1 (stereo partly shown)",
    "measured number": 0.600
  },
  {
    "compound": "CC1=CC(O)C2CC1C2(C)C (stereo not drawn) [Cis VERBENOL, cis-verbenol]",
    "measured number": 1.000
  },
  {
    "compound": "C=CC(C)CCCC(C)(C)O (stereo not shown) [DIHYDRO MYRCENOL, dihydro-myrcenol]",
    "measured number": 0.600
  },
  {
    "compound": "C=C(C)C1CCC(C)C(OC(C)=O)C1 (stereo not shown) [DIH[…]]",
    "measured number": 0.150
  }
]
